Positions of bridges follow the written chain, without caps; N, C: chain ends. Non-standard residues stand in square brackets, D forms with d. Residues, ends and D or L forms follow the SMILES beside them. *: point of attachment. Benzoyl(3-CF3) = O=C(c1cccc(C(F)(F)F)c1)*; Octanoyl = CCCCCCCC(=O)*; Dab = NCC[C@H](N)C(=O)O; Abu = CC[C@H](N)C(=O)O; Dap = NC[C@H](N)C(=O)O
# Minimum inhibitory concentration, Ec FADDI-EC001 per entry for Enterobacter cloacae
Field format: number, assumed µg/mL, no unit text.

*Q* Determine its reported Minimum inhibitory concentration, Ec FADDI-EC001: CCCCCCCC(=O)N[C@@H](CN)C(=O)N[C@H](C(=O)N[C@H](CO)C(=O)N[C@H]1CCNC(=O)[C@H]([C@@H](C)O)NC(=O)[C@H](CCN)NC(=O)[C@H](CCN)NC(=O)[C@H]([C@@H](C)O)NC(=O)[C@@H](CC(C)C)NC(=O)[C@H](CCN)NC1=O)[C@@H](C)O [Compound 13] (Octanoyl-[Dap]T[dS][Dab][Dab][dL]T[Dab][Dab]T; lactam 4-C)
*A* 0.25

*Q* Indicate the recorded Minimum inhibitory concentration, Ec FADDI-EC001 value for this compound: CC[C@@H]1NC(=O)[C@@H](CC(C)C)NC(=O)[C@H](CCN)NC(=O)[C@@H](NC(=O)[C@@H](CO)NC(=O)[C@@H](NC(=O)[C@H](CCN)NC(=O)c2cccc(C(F)(F)F)c2)[C@@H](C)O)CCNC(=O)[C@H]([C@@H](C)O)NC(=O)[C@H](CCN)NC(=O)[C@H](CCN)NC1=O [Compound 18] ({Benzoyl(3-CF3)}-[Dab]T[dS][Dab][Dab][dL][Abu][Dab][Dab]T; lactam 4-C)
*A* 1

---

# collection of Minimum inhibitory concentration, Ec FADDI-EC001 values tested on Enterobacter cloacae
Positions of bridges follow the written chain, without caps; N, C: chain ends. Non-standard residues stand in square brackets, D forms with d. Residues, ends and D or L forms follow the SMILES beside them. *: point of attachment. Phenylacetyl(3,4-Cl2) = O=C(Cc1ccc(Cl)c(Cl)c1)*; Benzoyl(4-Et) = CCc1ccc(C(=O)*)cc1; X16 = O=C(c1cc(F)c(F)c(F)c1)*; Tle = CC(C)(C)[C@H](N)C(=O)O; Lauroyl = CCCCCCCCCCCC(=O)*; X28 = O=C(c1ccc(F)cc1Cl)*; Octanoyl = CCCCCCCC(=O)*; Dab = NCC[C@H](N)C(=O)O; X33 = Cc1cccc(C(=O)*)c1; Abu = CC[C@H](N)C(=O)O; Dap = NC[C@H](N)C(=O)O; Hexanoyl = CCCCCC(=O)*

*Q* Enter Minimum inhibitory concentration, Ec FADDI-EC001 (test system Enterobacter cloacae) for CCc1ccc(C(=O)N[C@@H](CCN)C(=O)N[C@H](C(=O)N[C@@H](CN)C(=O)N[C@H]2CCNC(=O)[C@H]([C@@H](C)O)NC(=O)[C@H](CCN)NC(=O)[C@H](CCN)NC(=O)[C@H](CC)NC(=O)[C@@H](CC(C)C)NC(=O)[C@H](CCN)NC2=O)[C@@H](C)O)cc1 [Compound 100] ({Benzoyl(4-Et)}-[Dab]T[Dap][Dab][Dab][dL][Abu][Dab][Dab]T; lactam 4-C)
*A* 0.25 µg/mL

*Q* Give Enterobacter cloacae Minimum inhibitory concentration, Ec FADDI-EC001 for the following compound: CC[C@@H]1NC(=O)[C@@H](CC(C)C)NC(=O)[C@H](CCN)NC(=O)[C@@H](NC(=O)[C@H](CN)NC(=O)[C@@H](NC(=O)[C@H](CCN)NC(=O)c2ccc(F)cc2Cl)[C@@H](C)O)CCNC(=O)[C@H]([C@@H](C)O)NC(=O)[C@H](CCN)NC(=O)[C@H](CCN)NC1=O [Compound 135] (X28-[Dab]T[Dap][Dab][Dab][dL][Abu][Dab][Dab]T; lactam 4-C)
*A* <0.125 µg/mL

*Q* State Minimum inhibitory concentration, Ec FADDI-EC001 (Enterobacter cloacae) of CCCCCCCC(=O)N[C@@H](CCN)C(=O)N[C@H](C(=O)N[C@@H](CCN)C(=O)N[C@H]1CCNC(=O)[C@H]([C@@H](C)O)NC(=O)[C@H](CCN)NC(=O)[C@H](CCN)NC(=O)[C@H](C)NC(=O)[C@@H](CC(C)C)NC(=O)[C@H](CCN)NC1=O)[C@@H](C)O [Compound 21] (Octanoyl-[Dab]T[Dab][Dab][Dab][dL]A[Dab][Dab]T; lactam 4-C) .
*A* 0.125 µg/mL

*Q* Report value only: Minimum inhibitory concentration, Ec FADDI-EC001, Enterobacter cloacae, CCCCCCCC(=O)N[C@@H](CCN)C(=O)N[C@H](C(=O)N[C@@H](CN)C(=O)N[C@H]1CCNC(=O)[C@H]([C@@H](C)O)NC(=O)[C@H](CCN)NC(=O)[C@H](CCN)NC(=O)[C@H](C)NC(=O)[C@@H](CC(C)C)NC(=O)[C@H](CCN)NC1=O)[C@@H](C)O [Compound 35] (Octanoyl-[Dab]T[Dap][Dab][Dab][dL]A[Dab][Dab]T; lactam 4-C)
*A* <0.125 µg/mL

*Q* State recorded Minimum inhibitory concentration, Ec FADDI-EC001 with Enterobacter cloacae, entry CC[C@@H]1NC(=O)[C@@H](CC(C)C)NC(=O)[C@H](CCN)NC(=O)[C@@H](NC(=O)[C@H](CN)NC(=O)[C@@H](NC(=O)[C@H](CCN)NC(=O)c2cccc(C)c2)[C@@H](C)O)CCNC(=O)[C@H]([C@@H](C)O)NC(=O)[C@H](CCN)NC(=O)[C@H](CCN)NC1=O [Compound 87] (X33-[Dab]T[Dap][Dab][Dab][dL][Abu][Dab][Dab]T; lactam 4-C) , no comment.
*A* 2 µg/mL

*Q* Look up Enterobacter cloacae data: Minimum inhibitory concentration, Ec FADDI-EC001 of CC[C@@H]1NC(=O)[C@@H](CC(C)C)NC(=O)[C@H](CCN)NC(=O)[C@@H](NC(=O)[C@H](CN)NC(=O)[C@@H](NC(=O)[C@H](CCN)NC(=O)c2cc(F)c(F)c(F)c2)[C@@H](C)O)CCNC(=O)[C@H]([C@@H](C)O)NC(=O)[C@H](CCN)NC(=O)[C@H](CCN)NC1=O [Compound 133] (X16-[Dab]T[Dap][Dab][Dab][dL][Abu][Dab][Dab]T; lactam 4-C; N-terminus assumed) , then report it.
*A* 0.5 µg/mL

*Q* Print Enterobacter cloacae Minimum inhibitory concentration, Ec FADDI-EC001 for CCCCCC(=O)N[C@@H](CCN)C(=O)N[C@H](C(=O)N[C@@H](CCN)C(=O)N[C@H]1CCNC(=O)[C@H]([C@@H](C)O)NC(=O)[C@H](CCN)NC(=O)[C@H](CCN)NC(=O)[C@H]([C@@H](C)O)NC(=O)[C@@H](CC(C)C)NC(=O)[C@H](CCN)NC1=O)[C@@H](C)O [Compound 26] (Hexanoyl-[Dab]T[Dab][Dab][Dab][dL]T[Dab][Dab]T; lactam 4-C) .
*A* 0.5 µg/mL

*Q* Find the measured Minimum inhibitory concentration, Ec FADDI-EC001 of CC[C@@H]1NC(=O)[C@@H](CC(C)C)NC(=O)[C@H](CCN)NC(=O)[C@@H](NC(=O)[C@H](CN)NC(=O)[C@@H](NC(=O)[C@H](CCN)NC(=O)Cc2ccc(Cl)c(Cl)c2)[C@@H](C)O)CCNC(=O)[C@H]([C@@H](C)O)NC(=O)[C@H](CCN)NC(=O)[C@H](CCN)NC1=O [Compound 81] ({Phenylacetyl(3,4-Cl2)}-[Dab]T[Dap][Dab][Dab][dL][Abu][Dab][Dab]T; lactam 4-C) with Enterobacter cloacae as test system.
*A* 0.25 µg/mL

*Q* Give the observed Minimum inhibitory concentration, Ec FADDI-EC001 of CCCCCCCC(=O)N[C@@H](CN)C(=O)N[C@H](C(=O)N[C@@H](CCN)C(=O)N[C@H]1CCNC(=O)[C@H]([C@@H](C)O)NC(=O)[C@H](CCN)NC(=O)[C@H](CCN)NC(=O)[C@H]([C@@H](C)O)NC(=O)[C@@H](CC(C)C)NC(=O)[C@H](CCN)NC1=O)[C@@H](C)O [Compound 31] (Octanoyl-[Dap]T[Dab][Dab][Dab][dL]T[Dab][Dab]T; lactam 4-C) for Enterobacter cloacae.
*A* <0.125 µg/mL

*Q* State Minimum inhibitory concentration, Ec FADDI-EC001 (Enterobacter cloacae) of CCCCCCCC(=O)N[C@@H](CCN)C(=O)N[C@H](C(=O)N[C@@H](CN)C(=O)N[C@H]1CCNC(=O)[C@H]([C@@H](C)O)NC(=O)[C@H](CCN)NC(=O)[C@H](CCN)NC(=O)[C@H](C(C)(C)C)NC(=O)[C@@H](CC(C)C)NC(=O)[C@H](CCN)NC1=O)[C@@H](C)O [Compound 47] (Octanoyl-[Dab]T[Dap][Dab][Dab][dL][Tle][Dab][Dab]T; lactam 4-C) .
*A* 0.5 µg/mL

*Q* // fetch Minimum inhibitory concentration, Ec FADDI-EC001; item: CCCCCCCCCCCC(=O)N[C@@H](CCN)C(=O)N[C@H](C(=O)N[C@H](CO)C(=O)N[C@H]1CCNC(=O)[C@H]([C@@H](C)O)NC(=O)[C@H](CCN)NC(=O)[C@H](CCN)NC(=O)[C@H]([C@@H](C)O)NC(=O)[C@@H](CC(C)C)NC(=O)[C@H](CCN)NC1=O)[C@@H](C)O [Compound 10] (Lauroyl-[Dab]T[dS][Dab][Dab][dL]T[Dab][Dab]T; lactam 4-C) ; system: Enterobacter cloacae
*A* 1 µg/mL

Source of measurements: patent USRE48335E1
